- tested.system: UniProt P06536
- Sequence (P06536 whole entry): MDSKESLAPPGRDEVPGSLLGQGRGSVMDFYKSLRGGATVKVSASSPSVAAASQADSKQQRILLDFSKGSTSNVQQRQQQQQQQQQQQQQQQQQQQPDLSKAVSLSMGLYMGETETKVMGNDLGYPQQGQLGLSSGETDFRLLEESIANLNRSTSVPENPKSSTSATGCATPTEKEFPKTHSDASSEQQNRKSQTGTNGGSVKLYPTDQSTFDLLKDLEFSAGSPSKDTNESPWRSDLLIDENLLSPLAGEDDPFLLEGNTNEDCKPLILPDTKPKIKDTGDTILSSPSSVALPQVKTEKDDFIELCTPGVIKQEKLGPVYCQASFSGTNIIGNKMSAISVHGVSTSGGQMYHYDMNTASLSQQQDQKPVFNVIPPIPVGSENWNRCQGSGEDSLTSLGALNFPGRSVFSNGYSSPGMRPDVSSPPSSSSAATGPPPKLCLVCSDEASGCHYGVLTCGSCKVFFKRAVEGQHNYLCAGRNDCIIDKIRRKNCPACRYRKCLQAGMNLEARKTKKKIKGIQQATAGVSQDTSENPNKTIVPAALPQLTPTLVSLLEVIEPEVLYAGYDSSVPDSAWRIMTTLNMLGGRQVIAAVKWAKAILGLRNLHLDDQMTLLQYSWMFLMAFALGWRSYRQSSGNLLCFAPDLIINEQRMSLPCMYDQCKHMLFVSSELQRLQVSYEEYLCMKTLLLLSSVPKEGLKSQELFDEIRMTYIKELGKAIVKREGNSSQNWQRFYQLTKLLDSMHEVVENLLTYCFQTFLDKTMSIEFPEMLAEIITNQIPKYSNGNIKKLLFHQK
- test.description: Transactivation activity at glucocorticoid receptor in rat H4II-E cells assessed as induction of tyrosine aminotransferase
reported.metric: IC50 (nM)
Answer format: numeric, nM implied, no suffix.

stdin: Returns the measured IC50 for the input compound. Input: "Cn1c(SCC(=O)[C@@]2(O)CC[C@H]3[C@@H]4CCC5=Cc6c(cnn6-c6ccc(F)cc6)C[C@]5(C)[C@H]4[C@@H](O)C[C@@]32C)nc2ccccc21"
stdout: 174

stdin: Returns the measured IC50 for the input compound. Input: "C[C@]12Cc3cnn(-c4ccccc4)c3C=C1CC[C@@H]1[C@@H]2[C@@H](O)C[C@@]2(C)[C@H]1CC[C@]2(O)C(=O)CO"
stdout: 3.23

stdin: Returns the measured IC50 for the input compound. Input: "C[C@]12Cc3cnn(-c4ccc(F)cc4)c3C=C1CC[C@@H]1[C@@H]2[C@@H](O)C[C@@]2(C)[C@H]1CC[C@]2(O)C(=O)CSc1ccc2ccccc2c1"
stdout: 52.5

stdin: Returns the measured IC50 for the input compound. Input: "C[C@]12Cc3cnn(-c4ccc(F)cc4)c3C=C1CC[C@@H]1[C@@H]2[C@@H](O)C[C@@]2(C)[C@H]1CC[C@]2(O)C(=O)COc1ccc2ccccc2n1"
stdout: 44.7

stdin: Returns the measured IC50 for the input compound. Input: "C[C@]12Cc3cnn(-c4ccc(F)cc4)c3C=C1CC[C@@H]1[C@@H]2[C@@H](O)C[C@@]2(C)[C@H]1CC[C@]2(O)C(=O)CSc1ccc2ccccc2n1"
stdout: 24.3

stdin: Returns the measured IC50 for the input compound. Input: "C[C@]12Cc3cnn(-c4ccc(F)cc4)c3C=C1CC[C@@H]1[C@@H]2[C@@H](O)C[C@@]2(C)[C@H]1CC[C@]2(O)C(=O)CO"
stdout: 3.2
